- Assay Target: ATP-dependent Clp protease proteolytic subunit (Bacillus subtilis (strain 168)) (UniProt P80244)
- Test: qHTS Assay for Activators of ClpP; further: the source files actives as falling curves though it sought activators and does not explain the sign; nearly all actives have a fitted effect of over 65% in size
- Measurement Setup: purified B. subtilis ClpP, FRET peptide cleavage, 20 min; series mostly up to 57.5 µM
In all, about 340,000 compounds went through this assay and about 6,400 (1.9%) were called active. Roughly 4% stayed inconclusive and do not appear here. The call rests on the fitted dose curve; in most records, active means well fitted falling curve with a large enough effect; inconclusive means small, poorly fitted or top-dose-only effect; inactive means no such curve, though single readings can be large or run the other way. Shown is part of a subset that was picked to be rich in actives.
Choose the fitting class; nothing outside Y for active, N for inactive is accepted.

Check out these entries, answers already filled in.
>  <Compound>
CN[C@H]1C[C@H]2c3cc(Oc4ccccc4C)ccc3CCN2C(=O)[C@H]1[C@H](C)O

>  <Group Label>
N

$$$$
>  <Compound>
COC(=O)c1ccc(CN2C(=O)C(Cc3ccccc3)ON=C2c2ncccc2C)o1 (stereo not given)

>  <Group Label>
N

$$$$
>  <Compound>
CC(C)c1ccc(Cn2c(COc3ccccc3)nc3ccccc32)cc1

>  <Group Label>
N

$$$$
>  <Compound>
CCCCC(CCCC)c1ccc(C=Nc2ccc(/C=C/c3ccnc4ccccc34)cc2)cc1

>  <Group Label>
N

$$$$
>  <Compound>
COc1cc2c(=O)n(C)c3ccccc3c2cc1OC

>  <Group Label>
N

$$$$
>  <Compound>
O=c1[nH]cnc2c1c(-c1ccccc1)cn2-c1ccc(F)cc1

>  <Group Label>
N

$$$$
>  <Compound>
O=C(CNC(=O)c1ccco1)OCC(=O)c1ccccc1

>  <Group Label>
Y

$$$$
>  <Compound>
CC(C)c1ccc(OCC(O)CN2CCN(c3ccccn3)CC2)cc1 (stereo not given)

>  <Group Label>
N

$$$$
>  <Compound>
CC(C)c1ccc(OCC(O)Cn2cnc3ccccc32)cc1 (stereo not given)

>  <Group Label>
Y

$$$$
>  <Compound>
Cc1cc([N+](=O)[O-])ccc1NC(=O)C1CCCO1 (stereo not given)

>  <Group Label>
N

$$$$

(Q) Per the records of this test, what outcome belongs to CCCNC(=O)C1(C)CCCN(Cc2cccc(C(F)(F)F)c2)C1 (stereo not given) ?
(A) N

(Q) Input CC1(C(=O)NS(=O)(=O)C2CC2)CCCN(C(=O)CSc2ccccc2)C1 (stereo not given)
(A) N

(Q) Try this compound too: `COc1ccc(-c2cc3ccc(OCc4nn[nH]n4)cc3oc2=O)cc1`
(A) N

(Q) // next record `OC[C@@H]1CN(Cc2cccs2)C[C@H](n2cnc3c(Nc4ccccc4)ncnc32)O1`
(A) N

(Q) For COc1ccc(S(=O)(=O)NC(=O)C2(C)CCN2C(=O)COc2ccc(Cl)cc2)cc1 (stereo not given) then?
(A) N

(Q) Query `O=C1C[C@H]2C=CCc3cccc(c32)CN1Cc1ccccc1` next
(A) N

(Q) Now try `Cc1nn(Cc2ccccc2)c(C)c1C(=O)NCCCN1CCCC1=O` .
(A) N

(Q) Thanks! And `Cc1ccc(NC(=O)Cn2sc3ccccc3c2=O)cc1` ?
(A) N

(Q) What about this compound? `Cc1ccc(NC(=O)Nc2nnc(-c3ccncc3)s2)cc1`
(A) N

(Q) How about CCCCC(O)C1=C[N+](=O)CC=C1 (stereo not given) ?
(A) N

(Q) Then `Cc1cc(C)n2nc(C(=O)OCC(=O)N(CCC#N)c3ccc(F)cc3)nc2n1` ?
(A) N

(Q) Entry to check: `CCOC(=O)c1ccc(NC(=O)CNC(=O)c2ccco2)cc1`
(A) N

(Q) Please give the result for `NS(=O)(=O)c1ccc(NC(=O)COC(=O)c2ccco2)cc1` too.
(A) N

(Q) `COc1ccc(-c2ccc3[nH]c4c(c3c2)CCN2C[C@H]3[C@H](C)ON(C)[C@H]3C[C@@H]42)cc1` ?
(A) N

(Q) Now the same for `Nc1nc(N)c(N=O)c(N)n1`
(A) N

(Q) # repeat for CC1=C(C(=O)N(C(C)C)C(C)C)CC(CC(=O)NCCCCc2ccccc2)C(=O)N1CCC1=CCCCC1 (stereo not given)
(A) N

----------
- Assay Target: ATP-dependent Clp protease proteolytic subunit (Bacillus subtilis (strain 168)) (UniProt P80244)
- Test: qHTS Assay for Activators of ClpP; further: the source files actives as falling curves though it sought activators and does not explain the sign; nearly all actives have a fitted effect of over 65% in size
- Measurement Setup: purified B. subtilis ClpP, FRET peptide cleavage, 20 min; series mostly up to 57.5 µM
The whole screen tested about 340,000 compounds, of which about 6,400 (1.9%) were called active. Not shown: some 4% with an inconclusive outcome. Calls come from the whole dose curve; as a rule, active = well fitted falling curve with a large enough effect; inconclusive = small, poorly fitted or top-dose-only effect; inactive = no such curve, though single readings can be large or run the other way. This excerpt belongs to a sample that is enriched for actives.
Mark one answer only. Choices: True for active, False for inactive

>  <Molecule>
CCSC1(SCC)N=C(N)C2(C#N)C(c3ccccc3)NC(C)=CC12C#N (configuration not stated)

>  <Group Label>
True

$$$$
>  <Molecule>
COc1ccc(CC(N)c2csc(NC(=O)Nc3ccc(C(C)C)cc3)n2)cc1 (configuration not stated)

>  <Group Label>
False

$$$$
>  <Molecule>
COc1cccc(-c2cnc3c(NC(C)=O)cc(-c4cc(F)ccc4OC)cn23)c1

>  <Group Label>
False

$$$$

(Q) Could you please tell me the result logged for `N#CCCN(C(=O)Nc1ccc(Cl)c(Cl)c1)C1CCCCC1` in this assay?
(A) False

(Q) What do you get for `CCOc1ccccc1NC(=O)Cn1nnc(C(=O)NCc2cccs2)c1N` ?
(A) False

(Q) Proceed to `O=C1NC[C@H](CCCCN2CCN(CCc3ccccc3)C(=O)C2=O)N(CC2CCCCC2)C1=O`
(A) False

(Q) Now consider `O=C(Nc1nnc([C@H]2C[C@H](O)[C@@H](CO)O2)s1)c1cccc(Cl)c1` and answer again.
(A) False

(Q) # iterate: CC(C)N1C(=O)c2ccccc2NC(=O)C1C(=O)NCc1cccs1 (configuration not stated)
(A) False

(Q) What do we get for `CCOC(=O)c1cc2cc(OC)ccc2n1C1CCN(C)CC1` ?
(A) False

(Q) Query `CC1(C)C=Cc2c(ccc(C(=O)/C=C/c3ccccc3)c2O)O1` next
(A) False

(Q) One more molecule: `Cc1ccc(-c2ccc(CCC(=O)O)n2-c2ccc(C(N)=O)cc2)cc1`
(A) False

(Q) Now the same for CC1(C(=O)Nc2ccc3c(c2)OCCO3)CSCC(=O)N1CCOc1ccccc1 (configuration not stated)
(A) False

(Q) Also check `COc1cc(OC)c(/C=C/c2ccnc3ccccc23)c(OC)c1`
(A) False

(Q) // repeat for `COC(=O)[C@]12CCCCC=C1N(Cc1ccco1)C(=O)[C@H](CC(=O)NCC1CCCCC1)C2` and report
(A) False

(Q) Same read-out for `O=C(NCc1ccc(Cl)cc1)c1cc(=O)nc2sc(-c3ccccc3)nn12` ?
(A) False

(Q) Let us now turn to `O=C(NCc1ccc(Cl)cc1)c1cc2c(nc3sccn32)s1`
(A) True

(Q) Same question, `COCCCn1c(CCC(=O)O)ccc1-c1ccc(F)cc1` this time
(A) True

(Q) Can you check `Cn1ncc(Br)c1C(=O)NCc1cccs1` next?
(A) False

(Q) Same for `C(=Nc1ccc(/C=C/c2ccnc3ccccc23)cc1)Nc1ccc(/C=C/c2ccnc3ccccc23)cc1`
(A) False

(Q) Again, but for `O=C(CSCc1cccs1)N1CCCC1`
(A) False

(Q) Now this one: `CN(C(=O)CN1CCN(c2cc(-c3ccc(OCc4ccccc4)cc3)ncn2)CC1)c1ccccc1`
(A) False

(Q) Please do the same for `CCOC(=O)[C@]12CCC=C1N(CCC1=CCCCC1)C(=O)[C@H](CC(=O)NCc1ccc(C)o1)C2` as well.
(A) False

----------
- Assay Target: ATP-dependent Clp protease proteolytic subunit (Bacillus subtilis (strain 168))
- Test: qHTS Assay for Activators of ClpP; further: the source files actives as falling curves though it sought activators and does not explain the sign; nearly all actives have a fitted effect of over 65% in size
- Measurement Setup: purified B. subtilis ClpP, FRET peptide cleavage, 20 min; series mostly up to 57.5 µM
Among all 340,000 compounds or so, about 6,400 (1.9%) were called active. Not shown: some 4% with an inconclusive outcome. The call rests on the fitted dose curve; in most records, active means well fitted falling curve with a large enough effect; inconclusive means small, poorly fitted or top-dose-only effect; inactive means no such curve, though single readings can be large or run the other way. The sample holds actives, similar compounds and a random draw of the others, so the mix is not that of the screen.
API: response.call in active, inactive

Sample answers from the record:
>  <Molecule>
CO[C@H]1O[C@@H]2O[C@@]3(C)CC[C@@H]4[C@@H](C)CC[C@@H]([C@H]1C)[C@@]24OO3

>  <Group Label>
inactive

$$$$
>  <Molecule>
CCCCN(CCCNC(=O)c1cc(Nc2ccccc2OC)nc2ccccc12)c1ccccc1

>  <Group Label>
active

$$$$
>  <Molecule>
CCN1C(=O)N[C@@H](c2ccccc2)C(C(=O)OC)=C1C

>  <Group Label>
inactive

$$$$
>  <Molecule>
CCOC(=O)NC(C(F)(F)F)(C(F)(F)F)P(=O)(c1ccccc1)c1ccccc1

>  <Group Label>
inactive

$$$$
>  <Molecule>
CCOC(=O)NN1C(=O)c2ccccc2NC1c1ccccc1O (stereo unspecified)

>  <Group Label>
active

$$$$

(Q) What was the test verdict on `CC(C)c1cc(C(N)=O)c(NC(=O)c2cccc(COc3ccc(Br)cc3)c2)s1` ?
(A) active

(Q) Also `OC[C@@H]1CN(Cc2ccc(F)cc2)C[C@H](n2cnc3c(NC4CCCC4)ncnc32)O1` ?
(A) inactive
